Tgt: human MAO-B (Homo sapiens, UniProt P27338)
Construct: (BD Supersomes Enzymes)
Sequence (P27338 1-520): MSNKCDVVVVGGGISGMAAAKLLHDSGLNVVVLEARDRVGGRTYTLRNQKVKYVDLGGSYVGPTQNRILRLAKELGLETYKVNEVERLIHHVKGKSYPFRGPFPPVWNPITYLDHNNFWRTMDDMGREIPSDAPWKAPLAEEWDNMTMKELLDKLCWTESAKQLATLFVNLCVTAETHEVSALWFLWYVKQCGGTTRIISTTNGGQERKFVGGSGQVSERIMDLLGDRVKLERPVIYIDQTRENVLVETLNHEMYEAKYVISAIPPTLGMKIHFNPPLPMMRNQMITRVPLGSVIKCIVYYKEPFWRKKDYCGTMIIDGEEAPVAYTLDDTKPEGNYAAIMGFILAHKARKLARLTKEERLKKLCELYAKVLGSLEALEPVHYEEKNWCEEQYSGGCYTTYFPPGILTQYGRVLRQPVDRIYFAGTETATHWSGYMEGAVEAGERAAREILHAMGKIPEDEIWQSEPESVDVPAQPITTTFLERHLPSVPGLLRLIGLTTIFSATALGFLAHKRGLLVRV
Assay Notes: Monoamine oxidase B functional assay (kynuramine deamination, fluorescence)
Settings: membrane fractions from insect cells expressing human MAO-B; kynuramine substrate
Quantity Kind: Ki (nM)
Dear colleague, please return just the value in nM, with no unit written.

Value wanted: Ki (human MAO-B (Homo sapiens, UniProt P27338)) of entry `Cn1ccc2cc(-c3nc4ccc(F)nc4o3)cnc21`
18

###

Tgt: human MAO-B (Homo sapiens, UniProt P27338)
Quantity Kind: IC50

Look at this compound and give its reported IC50. `Cn1ccc2cc(-c3nc4ccc(F)nc4s3)cnc21`
3.7 nM
